# Tested on: EKVX NSCLC
# assay_details: NCI-60 one-dose screen, 48 h
# cond: 10 µM unless noted
Compounds without any hit were thinned out: in the full panel of roughly 83,000, 20% have a hit. The source made the active and inactive calls. How the source made its calls: active means growth percent below 10; inactive means the rest.
Respond only with the outcome that fits, drawn from class 1 (active), class 0 (inactive)

C=C(C)[C@@H]1CC[C@]2(C=O)CC[C@]3(C)[C@H](CC[C@@H]4[C@@]5(C)CCCNC(C)(C)[C@@H]5CC[C@]43C)[C@@H]12; class 0
COc1cc(NCC(O)CN(CC(C)C)C2CCCC2)c2ncccc2c1 (stereo not given); class 0

Now look at this one.
Given `COc1ccc(OC)c(/C=C/[C@H]2O[C@@H](C)[C@H](O)[C@@H]2O)c1` , state the outcome it received in this test.
class 0

* * *

# Tested on: HT29 colon
# assay_details: NCI-60 one-dose screen, 48 h (100 = growth as untreated, 0 = no growth, -100 = all killed)
# cond: 10 µM unless noted
# Procedure: Growth inhibition of the HT29 human tumor cell line is measured as a screen for anti-cancer activity. Cells are grown in 96 well plates and exposed to the test compound for 48 hours. Compounds are tested at a single concentration, which is 10^-5 M for most compounds. The reported endpoint is percent growth (GI% or GIPRCNT), where numbers from 0 - 100% represent growth inhibition, and numbers from -100% - 0 represent cell death. For example, a value of 40 represents 60% growth inhibition. […]
Compounds without any hit were thinned out: in the full panel of roughly 83,000, 20% have a hit.
Param threshold (90%) applies to growth; output t when value >= threshold, f when value < threshold.

Worked cases, answers included:
CCN1C(=O)N(CC)C2C1NN=c1s/c(=C3\C(=O)Nc4ccccc43)c(=O)n12 (stereo not given); f
C=C(C)[C@@H]1CC[C@]2(C(=O)NCC(=O)OC)CC[C@]3(C)[C@H](CC[C@@H]4[C@@]5(C)Cc6c([nH]c7ccccc67)C(C)(C)[C@@H]5CC[C@]43C)[C@@H]12; f
O=c1[nH]nc(-c2ccc(Cl)cc2)cc1Cc1cccc([N+](=O)[O-])c1; t

--- query ---
Has `CCOC(=O)c1ccc(Nc2ccnc(SCC(=O)c3ccc(C#N)cc3)n2)cc1` a recorded growth greater than or equal to 90%?
f

* * *

growth values for the compounds below.
# Test system: KM12 colon
# assay_details: NCI-60 one-dose screen, 48 h (100 = growth as untreated, 0 = no growth, -100 = all killed)
# cond: 10 µM unless noted
About 83,000 compounds went through this panel and 20% of them were active in at least one assay; those are over-represented in the sample as a whole.
Kindly provide the numeric value in % only, without the unit symbol.

Give its growth value. Item: CN(C)C(C(N)=O)c1ccc(Cl)cc1 (stereo not given)
102

Which growth value is on record for `CC(C)(C#N)N1CCN(c2ccccc2Cl)CC1` ?
106

* * *

# System: U251 CNS
# assay_details: NCI-60 one-dose screen, 48 h
# cond: 10 µM unless noted
About 83,000 compounds went through this panel and 20% of them were active in at least one assay; those are over-represented in the sample as a whole. Calls of active or inactive are those of the source. How the source made its calls: active means growth percent below 10; inactive means the rest.
Choose the fitting class; nothing outside T (active), F (inactive) is accepted.

COC(=O)C(c1ccccc1)C(CC(=O)c1ccccc1)c1ccccc1 (stereo not drawn); F

Moving on to another compound below.
Test call, this compound: `COc1cccc(NC(=O)c2cccc(-c3cc(=O)c4c(OC)c(OC)c(OC)cc4o3)c2)c1`
F

* * *

# Test system: NCI-H322M lung
# assay_details: NCI-60 one-dose screen, 48 h (100 = growth as untreated, 0 = no growth, -100 = all killed)
# cond: 10 µM unless noted
About 83,000 compounds went through this panel and 20% of them were active in at least one assay; those are over-represented in the sample as a whole. Calls of active or inactive are those of the source. Rule for the calls: active = growth percent below 10; inactive = the rest.
property: growth

COc1ccc(-c2nc(SC(C)C)nc(NNC(N)=O)c2C#N)cc1; 94.2% (inactive)

// growth lookup, key: `CC1(C)CN(Cc2ccccc2)CCN1Cc1ccccc1`
103% (inactive)

Looking for the measured growth of `COc1ccc(-c2nc(N/N=C/c3ccco3)nc(N3CCOCC3)c2C#N)cc1` , can you help?
87.1% (inactive)

Reported growth, compound COc1ccc(C2CC(c3cccc(Nc4ccncc4)c3)=NN2c2ccc(Cl)cc2)cc1 (configuration not stated) : ____
73.7% (inactive)

Which measured growth value corresponds to `Cc1c2c(cc[n+]1Cc1ccccc1)c1ccc(OCc3ccccc3)cc1n2Cc1ccccc1` ?
-26.9% (active)

Given the compound `Cc1nc2sc(C(=O)Nc3cccc(Br)c3)c(N)c2cc1C(=O)c1ccc(C(F)(F)F)cc1` , what is its reported growth?
65.7% (inactive)

Look at this compound and give its reported growth. CS(=O)(=O)c1ccc(-c2cc3c(oc2=O)-c2ccccc2OC3O)cc1 (configuration not stated)
107% (inactive)

Name the recorded growth for `O=C(O)CNC(=O)CN1C(=O)c2ccccc2C1=O` .
104% (inactive)

Given the entry `COc1ccc(-c2ncc(-c3ccccc3)[nH]2)cc1OC` , report its measured growth.
218% (inactive)

What value of growth has been reported for the following compound? `O=C1NC(=O)C(=Cc2cn(Cc3ccccn3)c3ccccc23)C(=O)N1`
105% (inactive)

# get_value(readout='growth', item= `O=C(N/N=C/c1cccnc1)c1ccccc1Nc1cccc(C(F)(F)F)c1` )
85.6% (inactive)

* * *

Each entry below carries its recorded growth.
# Tested on: CCRF-CEM leukemia
# assay_details: NCI-60 one-dose screen, 48 h (100 = growth as untreated, 0 = no growth, -100 = all killed)
# cond: 10 µM unless noted
The panel holds about 83,000 compounds, 20% with a hit somewhere; the sample as a whole holds those more often. Activity calls are given as the source filed them. The calls were made as follows: active = growth percent below 10; inactive = the rest.

Take a look at these entries with their results.
O=C1c2ccccc2C(=O)c2c(NCCN=Cc3ccccc3O)cccc21; 59% (inactive)
O=C(Nc1ccc(Cl)cc1)Nc1ccc(Cl)c(Cl)c1; 6.06% (active)
COc1cccc(-c2nc3occn3c2-c2ccnc(NCCCNS(=O)(=O)c3cccc(F)c3)n2)c1; 81.3% (inactive)
COc1cc(C2NC(c3cc(OC)c(OC)c(OC)c3)C(C#N)(C#N)C2(C#N)C#N)cc(OC)c1OC (configuration not stated); 136% (inactive)
O=C(Nc1ccc2cc3ccc(NC(=O)N4CCCCCC4)cc3nc2c1)N1CCCCCC1; 8.09% (active)
COc1cc(OC)c(/C=C/C(=O)c2ccc(Nc3ncnc4ccccc34)cc2)c(OC)c1; 1.37% (active)
NC(=O)c1cccc(-c2cc(C(N)=O)ccc2Cl)c1; 7.74% (active)
COc1ccc(C2=NN(C(C)=O)C(c3cn(Cc4ccc(Cl)cc4)c4ccccc34)C2)cc1 (configuration not stated); 70.7% (inactive)
COc1ccc(-c2nc(SC)nc(N3CCOCC3)c2C#N)cc1; 88.7% (inactive)
Cc1nc2sc(C(=O)Nc3cccc(Br)c3)c(N)c2cc1C(=O)c1ccc(C(F)(F)F)cc1; 82.1% (inactive)

So what growth did Clc1ccc(C2CC(c3cccc(Nc4ccncc4)c3)=NN2c2ccccc2)cc1 (configuration not stated) get with CCRF-CEM leukemia?
36.7% (inactive)

Recorded growth for `CCn1ccnc1C(=O)/C=C/c1ccc(CC(=O)Nc2ccc(F)cc2)cc1` with CCRF-CEM leukemia, please?
7.58% (active)

* * *

# Tested on: MDA-MB-231 breast
# assay_details: NCI-60 one-dose screen, 48 h (100 = growth as untreated, 0 = no growth, -100 = all killed)
# cond: 10 µM unless noted
The panel holds about 83,000 compounds, 20% with a hit somewhere; the sample as a whole holds those more often.
property: growth (%)
// note: answer is a bare numeric in %

Cc1[nH]n(-c2cccc(Cl)c2)c(=O)c1/C=C1\C=Nc2ccc(Br)cc21; 17.4
COC(=O)Nc1nc2ccc(C(=O)c3cccc(I)c3)cc2[nH]1; -3.99
COc1ccc(/C=N/C2=C(C#N)C(c3ccccc3[N+](=O)[O-])c3ccc4ccccc4c3O2)cc1 (stereo not given); 77.7
CC1=CC[C@@H]2CC[C@]3(C)[C@H](CC[C@@H]4[C@@]5(C)CCCNC(C)(C)[C@@H]5CC[C@]43C)[C@H]2[C@@H]1C; -7.94

Next, consider the following compound.
Can you share its growth? I mean this compound: `COc1ccc(NC(=O)c2sc3nc(C)c(C(=O)c4ccc(OC)cc4)cc3c2N)cc1`
60.2

* * *

// values below are reported growth
# Test system: SF-268 CNS
# assay_details: NCI-60 one-dose screen, 48 h (100 = growth as untreated, 0 = no growth, -100 = all killed)
# cond: 10 µM unless noted
This is part of a sample that, as a whole, favours compounds with a hit. Of some 83,000 tested, about 20% had one in any assay.
Respond with the bare value in %.

Some entries whose results are on file:
COc1cc(NCCCN(CC(C)C)C2CCCC2)c2ncccc2c1; 87.5
CC(C)CN(C(=O)c1ccc(Cl)cc1)c1c(N)n(CC(C)C)c(=O)[nH]c1=O; 92.3
Nc1nc(SN=Nc2ccc(S(N)(=O)=O)cc2)c2[nH]cnc2n1; 19.8

// below: growth requested for another compound
Fill in the blank: the reported growth of `C=C(C)[C@H]1CC/C(C)=C/CC[C@]2(C)O[C@H]2CC/C(COC(=O)[C@@H](OC(C)=O)[C@H](NC(=O)c2ccccc2)c2ccccc2)=C\[C@@H]1O` is ____.
90.2
